# Protocol: Cell Viability - LYMP2-008 (AID 980);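 also: cells exposed to compound for 24 h at 37 °C; % is scaled to controls: 0 for no effect and ±100 for the full control effect; nearly all actives have a fitted effect of over 60% in size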
# Experimental Parameters: LYMP2-008 lymphoblastoid cell viability, qHTS; series mostly up to 92.2 µM
Results filed as inconclusive are left out. Activity calls are given as the source filed them. Calls follow the shape of the dose curve; as a rule, active = well fitted cell-killing curve with a large enough effect; inconclusive = small, poorly fitted or top-dose-only effect; inactive = flat fitted curve, though single readings scatter.
# output must be one of TRUE (active), FALSE (inactive)

[Q] Each molecule tested received a call. Report the one for CCCCCCCCC1CO1 (stereo not given) .
[A] FALSE

[Q] Each molecule tested received a call. Report the one for O=C(O)c1cc(N=Nc2ccc([N+](=O)[O-])cc2)ccc1O .
[A] FALSE

[Q] Each molecule tested received a call. Report the one for Cc1cccnc1 .
[A] FALSE

[Q] Each molecule tested received a call. Report the one for Nc1ccc(N=Nc2ccccc2)c(N)c1 .
[A] FALSE

[Q] Each molecule tested received a call. Report the one for Cc1c2ccccc2c(C)c2c1ccc1ccccc12 .
[A] FALSE

[Q] Each molecule tested received a call. Report the one for Brc1ccc(-c2ccccc2)cc1 .
[A] FALSE

[Q] Each molecule tested received a call. Report the one for c1ccc(Nc2cccc3ccccc23)cc1 .
[A] FALSE

[Q] Each molecule tested received a call. Report the one for CC(=O)Nc1cccc(C)c1 .
[A] FALSE

====

Give activity change % (negative = inhibition) for every item shown.
# System Tested: Thyroid hormone receptor beta (Homo sapiens) (UniProt P10828)
# Sequence (P10828 whole entry, looked up): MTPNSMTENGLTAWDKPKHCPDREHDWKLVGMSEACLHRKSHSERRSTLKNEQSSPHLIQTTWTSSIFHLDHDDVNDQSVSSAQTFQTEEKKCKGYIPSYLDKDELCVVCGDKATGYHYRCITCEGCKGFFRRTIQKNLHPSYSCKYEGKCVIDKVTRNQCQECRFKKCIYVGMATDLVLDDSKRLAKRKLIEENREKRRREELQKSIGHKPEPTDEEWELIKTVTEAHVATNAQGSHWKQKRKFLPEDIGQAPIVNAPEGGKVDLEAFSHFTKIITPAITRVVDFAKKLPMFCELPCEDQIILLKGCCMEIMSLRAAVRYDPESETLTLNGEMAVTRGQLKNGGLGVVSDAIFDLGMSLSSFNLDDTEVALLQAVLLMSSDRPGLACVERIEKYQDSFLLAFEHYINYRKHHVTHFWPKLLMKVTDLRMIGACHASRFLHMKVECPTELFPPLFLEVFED
# Protocol: qHTS assay for small molecule antagonists of thyroid hormone receptor beta signaling (AID 588547);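 also: cells stimulated with 0.4 nM T3 agonist during compound exposure; % is scaled to controls: 0 for no effect and ±100 for the full control effect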
# Experimental Parameters: TR-UAS-bla HEK293, beta-lactamase ratio, antagonist mode, 18 h
Results filed as inconclusive are left out.
Numbers only, in %.

Solved entries:
{"columns": ["Molecule", "Units Text", "Quantitative Result"],
 "data": [
  ["CN(C)c1ccc(Cc2ccc(N(C)C)cc2)cc1", "%", 1.5],
  ["CCc1ccc(C(c2ccc(CC)cc2)C(Cl)Cl)cc1", "%", 13.5],
  ["Cc1cc(-c2ccc(N=Nc3cc(S(=O)(=O)O)c4ccccc4c3N)c(C)c2)ccc1N=Nc1cc(S(=O)(=O)O)c2ccccc2c1N", "%", -25.1],
  ["CCCCC(CC)COCCCN (stereo not drawn)", "%", 3.53]
]}

Hey, quick one: what's activity change % (negative = inhibition) for each of these?
1. O=C(O)/C=C/c1ccc(/C=C/C(=O)O)cc1
2. Brc1cc(Br)c(Oc2cc(Br)c(Br)cc2Br)cc1Br
3. Nc1ccccc1O
4. Oc1cc2c(cc1O)[C@H]1c3ccc(O)c(O)c3OC[C@@]1(O)C2
5. Cc1ccc(N)cc1[N+](=O)[O-]
6. C=CC(=O)CC
7. Cc1ccccc1OCC1CO1 (stereo not drawn)
8. c1cc2c3c(c1)ccc1cccc(c13)C2

[A]
2.91
17.2
-12.3
-14.1
-24.5
9.8
-11
-0.0299

[Q] Looking for the measured activity change % (negative = inhibition) of O=[N+]([O-])c1cccc(I)c1 , can you help?
[A] -8.55

====

# Protocol: Cell Viability - LYMP2-007 (AID 979);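 also: cells exposed to compound for 24 h before reading; 0% = DMSO only and the negative end = 92 µM tetraoctylammonium bromide; nearly all actives have a fitted effect of over 60% in size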
# Experimental Parameters: LYMP2-007 lymphoblastoid cell viability; series mostly up to 92.2 µM
Inconclusive results are not listed. The source made the active and inactive calls. Calls follow the shape of the dose curve; as a rule, active = well fitted cell-killing curve with a large enough effect; inconclusive = small, poorly fitted or top-dose-only effect; inactive = flat fitted curve, though single readings scatter.
Measure: outcome

Solved entries:
{"columns": ["Compound", "outcome"],
 "data": [
  ["Nc1ccc(N=Nc2ccccc2)c(N)c1", "inactive"],
  ["c1ccc(SCCSc2ccccc2)cc1", "inactive"],
  ["S=C(NC1CCCCC1)NC1CCCCC1", "inactive"],
  ["CN(C)c1ccc(Cc2ccc(N(C)C)cc2)cc1", "inactive"],
  ["COc1ccc(C)cc1N", "inactive"]
]}

Proceed to the following item.
[Q] Looking for the measured outcome of C[C@@H]1CC2(OC(O)[C@]3(C)O[C@H]23)O[C@H]2C[C@@]3(C)[C@@H]4CC[C@H]5C(C)(C)C(O[C@@H]6OC[C@@H](O)[C@H](O)[C@H]6O)CC[C@@]56C[C@@]46CC[C@]3(C)[C@@H]12 (stereo partly specified) , can you help?
[A] inactive

====

# System Tested: Cytochrome P450 1A2 (Homo sapiens) (UniProt P05177)
# Sequence (P05177 whole entry, looked up): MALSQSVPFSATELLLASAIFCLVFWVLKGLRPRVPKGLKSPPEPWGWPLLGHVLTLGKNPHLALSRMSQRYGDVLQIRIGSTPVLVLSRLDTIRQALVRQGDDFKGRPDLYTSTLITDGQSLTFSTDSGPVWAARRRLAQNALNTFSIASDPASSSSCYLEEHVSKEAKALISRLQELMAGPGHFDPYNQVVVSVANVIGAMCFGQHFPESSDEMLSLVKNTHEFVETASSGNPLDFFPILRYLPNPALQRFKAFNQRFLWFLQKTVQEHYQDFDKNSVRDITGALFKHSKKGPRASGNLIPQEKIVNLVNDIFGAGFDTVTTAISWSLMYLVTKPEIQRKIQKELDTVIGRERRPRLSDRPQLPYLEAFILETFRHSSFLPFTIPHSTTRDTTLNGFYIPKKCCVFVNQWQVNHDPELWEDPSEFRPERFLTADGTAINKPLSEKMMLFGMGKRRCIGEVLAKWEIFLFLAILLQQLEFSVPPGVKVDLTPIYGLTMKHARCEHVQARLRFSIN
# Protocol: p450-cyp1a2 (AID 410)
# Experimental Parameters: recombinant CYP1A2, luciferin-ME demethylation, luminescence; series mostly up to 11.4 µM
# Experimental: The P450 gene superfamily is involved in metabolism and the clearance of xenobiotics. This assay used human CYP1A2 to measure the demethylation of luciferin 6' methyl ether (Luciferin-ME; Promega-Glo) to luciferin. The luciferin is then measured by luminescence after the addition of a luciferase detection regeant. Luciferin-ME concentration in the assay was equal to its Km for CYP1A2. NCGC Assay Protocol Summary: […]
Results filed as inconclusive are left out. Calls of active or inactive are those of the source. Calls follow the shape of the full dose curve.
# output must be one of true (1) = active, false (0) = inactive

Known results for compounds:
{"columns": ["Smi", "Label Class"],
 "data": [
  ["N=C1C=CC(=C(c2ccc(N)cc2)c2ccc(N)cc2)C=C1", "true (1)"],
  ["O=C(O)CCNc1ccccc1C(=O)O", "false (0)"],
  ["Cc1c(NC(=O)Nc2c(Cl)cccc2Cl)c(=O)n(-c2ccccc2)n1C", "false (0)"],
  ["CN(C)C(=O)c1ccc(-c2nc(Nc3ccncc3)c3ccccc3n2)cc1", "true (1)"]
]}

[Q] Each compound tested received a call. Report the one for CCN1CCCCC(=N/O)/C(=N/O)CCCC1 .
[A] false (0)

[Q] Each compound tested received a call. Report the one for Nc1nccc(Nc2ccc(S(N)(=O)=O)cc2)n1 .
[A] false (0)

[Q] Each compound tested received a call. Report the one for O=C(O)CCC(O)=C1S(=O)(=O)OCCOS1(=O)=O .
[A] false (0)

[Q] Each compound tested received a call. Report the one for C/C(=N\NC(N)=S)c1ccc[nH]1 .
[A] true (1)

[Q] Each compound tested received a call. Report the one for CN(C)C[C@H]1CCC[C@@H](CN(C)C)C1=O .
[A] false (0)

[Q] Each compound tested received a call. Report the one for Nc1nc(N)nc(CCCc2nc(N)nc(N)n2)n1 .
[A] false (0)

====

# Protocol: Stat Signaling Pathway (AID 446);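 also: ME-180 cervical cancer cells given 40 pM IL-6 alongside compound; SIE-controlled beta-lactamase reporter measured as 460/530 nm FRET emission ratio; % is scaled to controls: 0 for no effect and ±100 for the full control effect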
# Experimental Parameters: ME-180 (cervical carcinoma) SIE beta-lactamase reporter, IL-6 stimulated, 5 h; at 7.69 µM (top of the series) unless noted
Records with an inconclusive call do not appear. Active and inactive are the calls of the source. Calls come from the whole dose curve; as a rule, active = well fitted curve in either direction with a large enough effect (not every such curve was filed as active); inconclusive = small, poorly fitted or top-dose-only effect, or another doubt; inactive = flat fitted curve, though single readings scatter.
Measure: activity, negative = inhibition

Hey, quick one: what's activity, negative = inhibition for each of these?
1. O=C(NNC(=O)c1ccncc1)c1ccncc1
2. Cc1nnc(S(=O)(=O)c2ccc(N=Nc3c(N)nc(N)nc3N)cc2)s1
3. C=C(C)CN(CC#N)CC(=C)C
4. CCCCNc1nc(SC)nc2nc[nH]c12

[A]
2.81% (inactive)
-3.59% (inactive)
16.5% (inactive)
-3.88% (inactive)

Hey, quick one: what's activity, negative = inhibition for each of these?
1. N[C@H](C(=O)O)[C@H](N)C(=O)O
2. NN(CC(=O)O)CC(=O)O
3. CN1CCN(CC(=O)Nc2cccc3ccccc23)CC1
4. Cc1ccc(N=Nc2c(O)c3ccccc3[nH]c2=O)c(S(=O)(=O)N(C)C)c1
5. C/C(=N/O)c1ccc2cc(Br)c3ccccc3c2c1
6. O=C(O)c1ccccc1NCn1c(=S)sc2ccccc21
7. O=C(O)c1ccc(Nc2ccnc3cc(Cl)ccc23)cc1O
8. CN(C)S(=O)(=O)Nc1ccccn1

[A]
["4.68% (inactive)", "-0.699% (inactive)", "15.2% (inactive)", "3.87% (inactive)", "-6.91% (inactive)", "-1.41% (inactive)", "-9.48% (inactive)", "8.85% (inactive)"]

Hey, quick one: what's activity, negative = inhibition for each of these?
1. COc1ccc(/C=C(\C#N)C(N)=O)cc1OC
2. O=C1Nc2ccccc2C1=Nc1ccc(S(=O)(=O)Nc2nccs2)cc1
3. O=C(O)[C@@H](O)[C@@H](O)[C@H](O)C(=O)CO
4. C/C(=N\[N+](C)(C)C)c1ccc(C)c(C)c1
5. C[C@H]1C[C@H]2[C@H]3CCC4=CC(=O)C=C[C@@]4(C)[C@]3(F)[C@H](O)C[C@]2(C)[C@@]1(O)C(=O)COP(=O)(O)O
6. CC(C)[C@H](Nc1ncnc2nc[nH]c12)C(=O)O
7. O=C(O)Cc1c[nH]c2ccc(F)cc12
8. CC(C)(N)C(=O)N[C@@H]1C(=O)N2[C@@H]1SC(C)(C)[C@H]2C(=O)O

[A]
1. -2.19% (inactive)
2. -9.11% (inactive)
3. 9.54% (inactive)
4. 6.61% (inactive)
5. -7.89% (inactive)
6. -3.88% (inactive)
7. 5.52% (inactive)
8. -0.982% (inactive)

Hey, quick one: what's activity, negative = inhibition for each of these?
1. O=C(O)c1cccc(SSc2cccc(C(=O)O)c2)c1
2. Oc1cc(O)c2c(c1)O[C@H](c1ccc(O)c(O)c1)[C@@H](O)[C@@H]2c1c(O)cc(O)c2c1O[C@@H](c1ccc(O)c(O)c1)[C@H](O)C2
3. Cc1ccc(N=Nc2c(O)ccc3cc(S(=O)(=O)O)ccc23)cc1

[A]
["-14.5% (inactive)", "-2.56% (inactive)", "-4.61% (inactive)"]

Hey, quick one: what's activity, negative = inhibition for each of these?
1. C[C@](O)(c1ccccc1)c1nccc2ccccc12
2. O=C1CCC[C@H]1C(=O)Nc1ccc2ccccc2c1
3. NC(N)=NCCSSCCN=C(N)N
4. O=C(O)C[C@H](Sc1ccccc1)c1ccccc1
5. c1ccc(CCN2CCN=C2Cc2ccccc2)cc1
6. O=C(O)C(=O)/C=C(\O)c1ccc(Br)cc1
7. CC(C)C[C@H](N)C(=O)O

[A]
-8.29% (inactive)
8.65% (inactive)
-24.3% [at 38 µM] (inactive)
-24.9% (inactive)
14.6% (inactive)
11.6% (inactive)
5.12% (inactive)

Hey, quick one: what's activity, negative = inhibition for each of these?
1. Nc1nc2c(C(=O)NCc3cccs3)nnn2c2cccc(Cl)c12
2. NC(=O)[C@@H]1CCCNC1
3. Cn1ncc2c(Cl)ncnc21

[A]
["-2.31% (inactive)", "14.3% (inactive)", "13.8% (inactive)"]

Hey, quick one: what's activity, negative = inhibition for each of these?
1. NC1=C(O)C(=O)[C@H](c2c[nH]c3ccc(OCc4ccccc4)cc23)O1
2. Nc1ccn([C@H]2O[C@H](CO)[C@@H]3[O][Sn]([c]4ccccc4)([c]4ccccc4)[O][C@H]32)c(=O)n1

[A]
1. -6.03% (inactive)
2. -20.4% (inactive)

Hey, quick one: what's activity, negative = inhibition for each of these?
1. C[N+](C)(C)/N=C\c1ccc(O)c(O)c1
2. CCOC(=O)c1cnc(N(C)C)nc1SC(=N)N
3. Cn1c(=S)c2[nH]c(SCc3cccnc3)nc2n(C)c1=O
4. O=C(O)C1C(C(=O)O)C(C(=O)O)C1C(=O)O (centres undefined)
5. NC(Cc1ccccc1)(C(=O)O)C(=O)O

[A]
1: 3.02% (inactive); 2: -0.214% (inactive); 3: 1.06% (inactive); 4: 0.791% (inactive); 5: -6.13% (inactive)
